# Study Target: PAK3 (Homo sapiens)
# Sequence (O75914 whole entry): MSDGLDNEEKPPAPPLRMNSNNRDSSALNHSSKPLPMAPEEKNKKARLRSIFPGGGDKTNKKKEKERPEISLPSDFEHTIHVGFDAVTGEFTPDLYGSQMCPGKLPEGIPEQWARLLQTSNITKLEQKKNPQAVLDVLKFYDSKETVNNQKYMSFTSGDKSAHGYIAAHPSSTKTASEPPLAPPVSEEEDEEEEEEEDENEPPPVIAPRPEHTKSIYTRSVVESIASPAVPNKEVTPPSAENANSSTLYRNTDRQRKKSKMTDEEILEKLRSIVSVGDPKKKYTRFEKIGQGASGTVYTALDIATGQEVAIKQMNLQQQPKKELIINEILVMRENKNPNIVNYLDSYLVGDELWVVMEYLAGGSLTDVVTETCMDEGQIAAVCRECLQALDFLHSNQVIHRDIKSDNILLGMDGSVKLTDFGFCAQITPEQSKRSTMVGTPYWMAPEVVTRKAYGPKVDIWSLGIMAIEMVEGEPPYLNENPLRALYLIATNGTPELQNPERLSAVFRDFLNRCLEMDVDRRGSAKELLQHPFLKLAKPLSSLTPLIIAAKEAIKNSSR
For each of the compounds below, state its IC50.

Answer with the recorded IC50 for the compound listed here: CCn1c(=O)c(-c2nc(C3CCN(C(C)=O)CC3)sc2C)cc2cnc(Nc3ccc(N4CCN(C)CC4)cc3)nc21
> 5000 nM

Fill in reported IC50 for this entry: CCn1c(=O)c(-c2ccc(-c3ccc(C)nc3F)cc2Cl)cc2cnc(Nc3ccc(C4CCN(C(C)C)CC4)cc3)nc21
50 to 500 nM

Give me measured IC50, please, for this compound: CC(=O)N(C)c1ncccc1-c1ccc(Cl)c(-c2cc3cnc(Nc4ccc(C5CCN(C)CC5)cc4)nc3n(C)c2=O)c1
500 to 5000 nM

Report IC50 for CCn1c(=O)c(-c2ccc(-c3ccnc(C(=O)NC)c3)cc2Cl)cc2cnc(Nc3ccc(C4CCN5CCCC5C4)cc3)nc21 (centres unmarked)
50 to 500 nM

Give the reported value of IC50 for this record: CCn1c(=O)c(-c2ccc(-c3cnn(C)c3)cc2Cl)cc2cnc(Nc3ccc(N4CCN(C)CC4)cc3)nc21
50 to 500 nM

Retrieve IC50 measured for CCn1c(=O)c(-c2ccc(-c3cccnc3)cc2Cl)cc2cnc(Nc3ccc(C4CCNCC4)c(F)c3)nc21 and print it.
< 50 nM

Return value of IC50 for input CCn1c(=O)c(-c2ccc(-c3cncs3)cc2Cl)cc2cnc(Nc3ccc(N4CCN(C)CC4)c(F)c3)nc21 , no commentary.
< 50 nM

Item CCn1c(=O)c(-c2ccc(-c3ncncc3F)cc2Cl)cc2cnc(Nc3ccc(C4CCN(C)CC4)cc3)nc21 : provide IC50
< 50 nM

Complete the entry with IC50 for CCn1c(=O)c(-c2ccc(-c3noc(C)n3)cc2Cl)cc2cnc(Nc3ccc(C4CCNCC4)c(F)c3)nc21
< 50 nM

Give the reported value of IC50 for this record: CCn1c(=O)c(-c2ccc(-c3cccnc3)cc2Cl)cc2cnc(Nc3ccc(N4CCNCC4)cc3)nc21
< 50 nM

Query IC50 for CCn1c(=O)c(-c2ccc(-c3noc(C)n3)cc2F)cc2cnc(Nc3ccc(C4CCN(C)CC4)cc3)nc21
50 to 500 nM

// Input: CCn1c(=O)c(-c2ccc(-c3ccnc(C)c3)cc2Cl)cc2cnc(Nc3ccc(C4CCN5CCCC5C4)cc3)nc21 (centres unmarked) . Output its IC50 only.
50 to 500 nM

Quote IC50 reported for CC(=O)N(C)c1ccc(-c2ccc(Cl)c(-c3cc4cnc(Nc5ccc(C6CCN(C)CC6)cc5)nc4n(C)c3=O)c2)cn1 please.
> 5000 nM

Identify measured IC50 corresponding to CCN1CCC(c2ccc(Nc3ncc4cc(-c5ccc(-c6ccnc(C)c6)cc5Cl)c(=O)n(CC)c4n3)cc2)CC1
50 to 500 nM

Please give measured IC50 of the following entry: CCN(CC)CCc1ccc(Nc2ncc3cc(-c4ccc(-c5noc(C)n5)cc4Cl)c(=O)n(CC)c3n2)cc1
< 50 nM

Quote IC50 reported for CCn1c(=O)c(-c2ccc(-c3ccc(C)nc3)cc2Cl)cc2cnc(Nc3ccc(CCN(C)C)cc3)nc21 please.
50 to 500 nM

Provide only the value of recorded IC50 for CCN1CCC(c2ccc(Nc3ncc4cc(-c5ccc(-c6cccnc6F)cc5Cl)c(=O)n(CC)c4n3)cc2)CC1
< 50 nM

Return IC50 for the following compound: CN1CCC(c2ccc(Nc3ncc4cc(-c5cc(-c6ccccn6)ccc5Cl)c(=O)n(C)c4n3)cc2)CC1
50 to 500 nM

Identify measured IC50 associated with CCn1c(=O)c(-c2ccc(-c3ncc(C)s3)cc2Cl)cc2cnc(Nc3ccc(N4CCN(C)CC4)cc3)nc21
50 to 500 nM

Please indicate IC50 recorded for CCn1c(=O)c(-c2ccc(-c3ccnc(C)c3)cc2Cl)cc2cnc(Nc3ccc(C4CCN(C)CC4)c(F)c3)nc21
50 to 500 nM

# return recorded IC50 for entry CCn1c(=O)c(-c2ccc(-c3ccc(F)nc3C)cc2Cl)cc2cnc(Nc3ccc(C4CCN(C)CC4)cc3)nc21
50 to 500 nM

Provide only the value of recorded IC50 for CCn1c(=O)c(-c2ccc(-c3ccc(C)nc3)cc2Cl)cc2cnc(Nc3ccc(C4CCNCC4)c(F)c3)nc21
50 to 500 nM

State its IC50: CCn1c(=O)c(-c2ccc(-c3nccnc3C)cc2Cl)cc2cnc(Nc3ccccc3)nc21
50 to 500 nM

Identify the reported IC50 for the following entry. CCn1c(=O)c(-c2ccc(-c3cccc4ncccc34)cc2)cc2cnc(Nc3ccc(N4CCN(C)CC4)cc3)nc21
> 5000 nM

Please give the documented IC50 of CCn1c(=O)c(-c2ccc(-c3cnc(C)s3)cc2Cl)cc2cnc(Nc3ccc(C4CCNCC4)c(F)c3)nc21
< 50 nM

Provide IC50 value for the following compound: CCn1c(=O)c(-c2ccc(-c3noc(C)n3)cc2Cl)cc2cnc(Nc3ccc(N4CCN(C(C)C)CC4)cc3)nc21
< 50 nM

Specify reported IC50 for the compound shown: CN1CCC(c2ccc(Nc3ncc4cc(-c5cc(-c6cnccn6)ccc5Cl)c(=O)n(C)c4n3)cc2)CC1
50 to 500 nM

Please give measured IC50 of the following entry: CCN1CCC(c2ccc(Nc3ncc4cc(-c5ccc(-c6cccnc6F)cc5Cl)c(=O)n(CC)c4n3)cc2F)CC1
< 50 nM

For the compound Cc1nc(-c2ccc(Cl)c(-c3cc4cnc(Nc5ccc(C6CCN(C)CC6)cc5)nc4n(C)c3=O)c2)no1 , give its measured IC50 value.
50 to 500 nM

Provide IC50 value for the following compound: CCn1c(=O)c(-c2ccc(-c3noc(C)n3)cc2Cl)cc2cnc(Nc3ccc(N4CCNCC4)c(F)c3)nc21
< 50 nM

Fill in reported IC50 for this entry: CCn1c(=O)c(-c2ccc(-c3cccnc3F)cc2Cl)cc2cnc(Nc3ccc(C4CCNCC4)c(F)c3)nc21
< 50 nM

Give the value of IC50 reported for the following: CN1CCC(c2ccc(Nc3ncc4cc(-c5cc(-c6nccc(N(C)C)n6)ccc5Cl)c(=O)n(C)c4n3)cc2)CC1
50 to 500 nM
